Parameter: TGI. Scope: all listed entries.
Tested on: DU-145 prostate
Assay: NCI tumour cell line growth inhibition, 48 h
Return type: number; implicit unit µM.

{"columns": ["Compound", "Reported endpoint", "Unit name", "Reading"],
 "data": [
  ["COC(=O)c1c(O)ccc2c1c1c(n2Cc2ccccc2OC)C(=O)c2ccccc2C1=O", "TGI", "µM", 30]
]}

Could you now consider this next compound?
Give the measured TGI of CCN1C(=O)N(CC)C2C1NN=c1s/c(=C3\C(=O)N(C4CCCC4)c4ccccc43)c(=O)n12 (stereo not given) .
6.59

---

Test system: SK-MEL-28 melanoma
Assay: NCI tumour cell line growth inhibition, 48 h
Quick rule: TGI of at least 30 µM means true (1), below that means false (0).

Please review the entries below; each comes with its answer.
{"columns": ["Compound", "Qualitative label"],
 "data": [
  ["COc1ccc2c(c1)CCc1cc(OC)ccc1/[N+]([O-])=[N+]\\2[O-]", "true (1)"],
  ["c1ccc(Cn2c(-c3ccc(-c4ccccc4)cc3)cc3ccccc32)cc1", "true (1)"]
]}

State whether the measured TGI reaches 30 µM, counting equality as reaching it, for `N#Cc1nc(C#N)c(Sc2ccccc2)c(Sc2ccccc2)c1Sc1ccccc1`
false (0)

Query `COc1c(I)c(OC)c2c(c1I)O[C@@H]1OCC[C@H]21` next
true (1)

Query `COC(=O)c1c(O)ccc2c1c1c(n2Cc2ccccc2OC)C(=O)c2ccccc2C1=O` next
true (1)

Query `C=C1C(=O)O[C@H]2[C@H]1CC/C(COC(=O)/C=C\C(=O)NCc1ccc(Cn3c(=O)sn(CCI)c3=O)cc1)=C\CC[C@@]1(C)O[C@@H]21` next
false (0)

Query C=CCCCN1CCCC(C)C1=S (stereo not given) next
true (1)

Query `CCOC(=O)c1c(C)nc2c(c1N)/C(=C/c1ccccn1)C(=O)N2Cc1ccccc1` next
false (0)

Query NS(=O)(=O)c1ccc(NC(=O)C2C(=O)C(=O)N(c3ccc(S(N)(=O)=O)cc3)C2=O)cc1 (stereo not given) next
true (1)

---

Parameter: GI50. Scope: all listed entries.
System: LOX IMVI melanoma
Experiment: NCI tumour cell line growth inhibition, 48 h

{"columns": ["Molecule", "GI50"],
 "data": [
  ["c1ccc(Oc2ccc(Nc3ncc(-c4ccccc4)o3)cc2)cc1", "> 25000 nM"],
  ["CCCCOc1ccc(/C=N/Nc2cc(C)nc3ccc(Br)cc23)cc1", "1770 nM"],
  ["CCOc1ccc(C(C[N+](=O)[O-])Sc2ccccc2N)cc1 (stereo not given)", "1440 nM"],
  ["C/C=C/C(=O)[O-].C/C=C/C(=O)[O-].N.N.N.N.[Co+3].[O-][Cl+3]([O-])([O-])[O-]", "> 100000 nM"]
]}

Could you now consider this next molecule?
Give the measured GI50 of `O=C1Nc2ccccc2/C1=C\c1nc(-c2ccccc2F)n2ccccc12` .
4150 nM

---

Tested on: LXFL 529 NSCLC
Assay: NCI tumour cell line growth inhibition, 48 h
Reported endpoint: TGI (µM)
Return type: number; implicit unit µM.

Give the measured TGI of `COc1c(I)c(OC)c2c(c1I)O[C@@H]1OCC[C@H]21` .
63.7

Query `ClCC[N-]CC[N-]CCCl.ClCC[N-]CC[N-]CCCl.[O-][Cl+3]([O-])([O-])O.[Zn+2]` next
35.9

Query CSc1ccc(NC(=O)C2c3[nH]c4ccccc4c3C3CCC(C(C)(C)C)CC3C2C(=O)O)cc1 (stereo not drawn) next
31.8

Query CC1=CP(=O)(c2ccccc2)C=C(C)C1=C(Cl)Cl (stereo not drawn) next
11.3

Query O=C(CC1C(=O)Nc2ccccc2S1(=O)=O)Nc1ccc(Cl)cc1 (stereo not drawn) next
78.2

Query `CC(C)COC1Sc2ccccc2S1` next
49.3

Query `O=C(Nc1ccc(Cl)cc1C(=O)O)c1ccc([N+](=O)[O-])cc1` next
48.7

---

Tested on: SF-295 CNS
Test: NCI tumour cell line growth inhibition, 48 h
Parameter: TGI. Scope: all listed entries.

Give the measured TGI of `CCOC(=O)c1[nH]c2cc(OC)c(OC)cc2c1CN(C)C` .
> 100 µM

---

Parameter: GI50. Scope: all listed entries.
Tested on: NCI/ADR-RES ovarian
Assay: NCI tumour cell line growth inhibition, 48 h

Completed entries (count: 4):
{"columns": ["Compound", "GI50"],
 "data": [
  ["CCC(C)C1=C(O)[N+]2([O-])Oc3ccc(C4=C(O)C(=O)C(c5ccc(O)cc5)=C(O)C4=O)cc3OC2(C(C)CC)C(=O)N1O (stereo not given)", "7.86 µM"],
  ["Cc1nc2sc3c(N)ncnc3c2c(C)c1C", "> 25 µM"],
  ["N#Cc1nc(C#N)c(Sc2ccccc2)c(Sc2ccccc2)c1Sc1ccccc1", "0.504 µM"],
  ["CC1=C(C(=O)Nc2ccc(F)c(Cl)c2)C(c2cccc(Oc3ccccc3)c2)NC(=S)N1 (stereo not given)", "27.8 µM"]
]}

Could you now consider this next compound?
Requested read-out GI50, target or system NCI/ADR-RES ovarian, entry `O=C(Nc1cc(Cl)cc(Cl)c1)c1cccc(NC2=C(Cl)C(=O)N(Cc3ccccc3)C2=O)c1`
30.3 µM

---

System: SF-268 CNS
Test: NCI tumour cell line growth inhibition, 48 h
Parameter: GI50. Scope: all listed entries.

{"columns": ["Compound", "GI50"],
 "data": [
  ["c1ccc(Oc2ccc(Nc3ncc(-c4ccccc4)o3)cc2)cc1", "> 25 µM"]
]}

Give the measured GI50 of COc1cc2ncnc(Nc3ccc(Oc4ccnc(C)c4)c(C)c3)c2cc1NC(=O)CC1CCSS1 (stereo not given) .
0.94 µM

Query `Cc1nc2sc3c(N)ncnc3c2c(C)c1C` next
> 25 µM

---

Parameter: TGI. Scope: all listed entries.
Test system: UO-31 renal
Experiment: NCI tumour cell line growth inhibition, 48 h

Completed entries (count: 5):
{"columns": ["Compound", "Tested system", "Reading"],
 "data": [
  ["CC(C)COC1Sc2ccccc2S1", "UO-31 renal", "29.4 µM"],
  ["Clc1cccc(CNc2c3ccccc3nc3ccccc23)c1", "UO-31 renal", "3.13 µM"],
  ["C/C(=N\\Nc1nc2ccccc2[nH]1)c1cnccn1", "UO-31 renal", "> 27.2 µM"],
  ["CC(=O)NNc1nc(C)c(C(=O)NNC(=O)C(=O)Nc2c([N+](=O)[O-])ccc(C)c2C)s1", "UO-31 renal", "> 100 µM"],
  ["O=C(N/C(=C\\c1ccccc1O)c1nc2ccccc2[nH]1)c1ccccc1", "UO-31 renal", "> 100 µM"]
]}

Give the measured TGI of CCOc1ccc(C(C[N+](=O)[O-])Sc2ccccc2N)cc1 (stereo unspecified) .
18.2 µM

---

Test system: MDA-MB-435
Permitted responses: true (1) = active, false (0) = inactive

Please review the entries below; each comes with its answer.
{"columns": ["Compound", "Tested system", "Qualitative label"],
 "data": [
  ["[N-]=[N+]=NCCCn1c2c(c3ccc([N+](=O)[O-])cc3c1=O)C(=O)c1cc(-c3ccccc3)ccc1-2", "MDA-MB-435", "false (0)"],
  ["N=C(N)c1ccc(-c2ccc(-c3ccc4ccccc4c3)s2)s1", "MDA-MB-435", "false (0)"],
  ["Nc1ncc(-c2ccc3ncnc(N4CCc5ccc(Cl)cc54)c3c2)cc1C(F)(F)F", "MDA-MB-435", "false (0)"],
  ["COCCc1n(Cc2ccc3ccccc3c2)c2ccccc2[n+]1Cc1ccc2ccccc2c1", "MDA-MB-435", "true (1)"]
]}

Please examine the following record next.
# outcome recorded in this test, key = COc1ccccc1[As]=[As]c1ccccc1OC (stereo not given)
true (1)

---

System: SF-295 CNS
Experiment: NCI tumour cell line growth inhibition, 48 h; in the data active = GI50 below about 0.43 µM; inactive = the rest
Permitted responses: true (1) (active), false (0) (inactive)

{"columns": ["Compound", "Qualitative label"],
 "data": [
  ["C#CC1(O)C(COP(=O)(O)OCC2OC(n3cc(F)c(=O)[nH]c3=O)CC2O)OC(n2ccc(N)nc2=O)C1O (stereo not given)", "true (1)"],
  ["Clc1ccc2c(c1)N(C1CCCN(Cc3ccccc3)C1)c1ccccc1S2 (stereo not given)", "false (0)"],
  ["O=C(Nc1cc(Cl)cc(Cl)c1)c1cccc(NC2=C(Cl)C(=O)N(Cc3ccccc3)C2=O)c1", "false (0)"],
  ["CCCCCCCCCCNCCSS(=O)(=O)O", "false (0)"]
]}

Please examine the following record next.
# outcome recorded in this test, key = `CCCCCCCCCCCCN=C(N)c1ccc(N2CCN(c3ccc(C(N)=NCCCCCCCCCCCC)cc3)CC2)cc1`
false (0)

---

Parameter: TGI. Scope: all listed entries.
Tested on: MCF7 breast
Assay: NCI tumour cell line growth inhibition, 48 h

Completed entries (count: 4):
{"columns": ["Compound", "TGI"],
 "data": [
  ["COc1ccc(C2C(C#N)=C(N)Oc3c2sc2c(Br)cccc32)cc1 (stereo unspecified)", "12 µM"],
  ["CN(/N=C/c1ccccn1)C1=NCCCN1", "> 100 µM"],
  ["CC(=O)Nc1ccc(S(=O)(=O)N=S(C)C)cc1", "> 100 µM"],
  ["CCOC(=O)NN(C(=O)OCC)C(=C(C1=CCCCC1)N1CCOCC1)N(NC(=O)OCC)C(=O)OCC", "> 100 µM"]
]}

Requested read-out TGI, target or system MCF7 breast, entry COC1C=COC2(C)Oc3c(C)c(O)c4c(O)c(c(C5SCCS5)c(O)c4c3C2=O)NC(=O)/C(C)=C\C=CC(C)C(O)C(C)C(O)C(C)C(OC(C)=O)C1C (stereo unspecified)
24.2 µM

Query `O=c1[nH][nH]c(=O)n1/N=C/c1ccccc1` next
> 100 µM
